# assay.info: Thermodynamic (shake-flask) solubility
# Assay type: physicochemical
# condition.set: aqueous buffer, thermodynamic from solid; pION universal buffer pH 7.4, 24 h; read-out: Solubility, pH 7.4, value
readout.name: solubility at 24 h (µg/mL)

a = C[C@H]1CO[C@@H]2Cn3cc(C(=O)NCc4ccc(F)cc4F)c(=O)c(O)c3C(=O)N12 [CAB, Cabotegravir, reference compound]
b = C[C@H]1CO[C@@H]2Cn3cc(C(=O)NCc4nc5ccccc5s4)c(=O)c(O)c3C(=O)N12
c = C[C@@H]1CCO[C@H]2Cn3cc(C(=O)NCc4ccc(F)nc4F)c(=O)c(O)c3C(=O)N12
d = C[C@H]1CO[C@@H]2Cn3cc(C(=O)NCc4ccc5nonc5c4)c(=O)c(O)c3C(=O)N12
Req: Give the descending solubility at 24 h ranking for the 4 compounds listed above. Response field: labels, in requested order.
Resp: c, b, a, d

A = C[C@H]1CO[C@@H]2Cn3cc(C(=O)NCc4cccc5cccnc45)c(=O)c(O)c3C(=O)N12
B = Cc1cc2c(cc1CNC(=O)c1cn3c(c(O)c1=O)C(=O)N1[C@@H](C)CO[C@@H]1C3)OCCO2
Req: Please compare: A and B . Report which one has the smaller solubility at 24 h value. Reply with the label of the item you choose.
Resp: A
(A: 6 µg/mL, B: 70 µg/mL)

====

# assay.info: Thermodynamic (shake-flask) solubility
# Format: physicochemical
# condition.set: thermodynamic from solid; deionized water, 24 h; read-out: Solubility, water, value
# Method: The test compound of general formula 1 or 2 (2 mg) was weighed into a glass vial. The pION universal buffer (0.5 ml) with pH 7.4 or deionized water was added to appropriate vials. […] The optical density of the resulting solutions was measured on a multifunction Infinite 200 PRO plate reader in the wavelength range from 240 nm to 400 nm in steps of 10 nm. The value of ODλ for solutions was assessed at a wavelength chosen for plotting a calibration curve. […]
readout.name: solubility at 24 h (µg/mL)

Please review the entries below; each comes with its answer.
INSERT INTO measurements (compound, val) VALUES
  ('C[C@H]1CO[C@@H]2Cn3cc(C(=O)NCc4c(F)cncc4F)c(=O)c(O)c3C(=O)N12 [Compound 1.1.24]', 347),
  ('C[C@H]1CO[C@@H]2Cn3cc(C(=O)NCc4cccc5cccnc45)c(=O)c(O)c3C(=O)N12 [Compound 1.1.54]', 10),
  ('C[C@H]1CO[C@@H]2Cn3cc(C(=O)NCc4ccncc4F)c(=O)c(O)c3C(=O)N12 [Compound 1.1.23]', 78),
  ('C[C@@H]1CCO[C@H]2Cn3cc(C(=O)NCc4ccc(F)nc4F)c(=O)c(O)c3C(=O)N12 [Compound 1.2.1]', 57),
  ('C[C@H]1CO[C@@H]2Cn3cc(C(=O)NCc4ncc(F)cc4F)c(=O)c(O)c3C(=O)N12 [Compound 1.1.17]', 131);

P = Cc1cc2c(cc1CNC(=O)c1cn3c(c(O)c1=O)C(=O)N1[C@@H](C)CO[C@@H]1C3)OCCO2 [Compound 1.1.36]
Q = C[C@H]1CO[C@@H]2Cn3cc(C(=O)NCc4nc5ccccc5s4)c(=O)c(O)c3C(=O)N12 [Compound 1.1.37]
Req: // compare measured solubility at 24 h, left P , right Q , return larger Reply with the label of the item you choose.
Resp: P
